Cited source for all entries: patent US20150315211A1

Listing of recorded BCL-XL % Bound by entry.
Target: BCL-XLΔC (Homo sapiens)
Sequence (Q07817 1-212 limits assumed, stated change not applied): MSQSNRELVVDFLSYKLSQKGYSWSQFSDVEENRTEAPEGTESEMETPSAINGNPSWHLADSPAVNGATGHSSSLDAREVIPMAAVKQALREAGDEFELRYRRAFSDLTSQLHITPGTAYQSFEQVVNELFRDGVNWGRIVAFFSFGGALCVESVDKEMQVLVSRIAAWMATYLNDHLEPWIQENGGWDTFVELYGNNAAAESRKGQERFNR
Assay: High-throughput competitive FP binding screen, FITC-BAD BH3/BCL-XLΔC interaction
Conditions: FITC-BAD BH3/BCL-XLΔC interaction pair, competitive FP screen
// return numeric value only (unit: %, not printed)

Sample answers from the record:
COMPOUND	READING UNIT	NUMERIC RESULT
O=c1c(O)c(-c2cc(O)c(O)c(O)c2)oc2cc(O)cc(O)c12 [Myricetin, reference compound]	%	102.4
CSc1sc(C(=O)/C=C/N(C)C)c(-c2cccs2)c1C#N	%	30.42
COC(=O)c1c(NC(=O)C2CC2)sc(C)c1C	%	101

What value of BCL-XL % Bound has been recorded for this entry: Cc1ncc(CO)c2c1Oc1nc(-c3ccccc3)[nH]c(=S)c1C2
131.2

What value of BCL-XL % Bound has been recorded for this entry: Cc1cccc(C(=O)Oc2ccc3oc(=O)sc3c2)c1
92.24

* * *

Test system: MCL-1ΔNΔC
Assay: High-throughput competitive FP binding screen, FITC-MCL-1 SAHB/MCL-1ΔNΔC interaction
Conditions: selectivity for MCL-1ΔNΔC over BCL-XLΔC targeting (BCL-XL % Bound minus MCL-1 % Bound)
Mark each entry satisfied if its Spec Values sits below 60, and not satisfied for all others.

COMPOUND	GROUP
CC(/N=C/c1cccc(O)c1O)c1ccccc1 (centres unmarked)	satisfied
Cc1cccc(CSc2ccc(-c3ccco3)nn2)c1	satisfied
CCCCCOc1ccc(C(=O)/C=C/C(=O)O)cc1	satisfied
CN1C(=O)C2(NN=C(c3ccccc3)S2)c2cc(Br)ccc21 (centres unmarked)	not satisfied
CCCCSC1=C(C#N)C(=O)NC(c2ccc(OC)cc2)S1 (centres unmarked)	not satisfied
O=c1c(O)c(-c2ccc(O)c(O)c2)oc2cc(O)cc(O)c12 [Quercetin, reference compound]	not satisfied

# check: Spec Values < 60 for O=c1c(O)c(-c2cc(O)c(O)c(O)c2)oc2cc(O)cc(O)c12 [drawing 222]
not satisfied

# check: Spec Values < 60 for CCOc1cccc(/C=N/n2c(S)nnc2-c2ccc(Cl)cc2)c1O
satisfied

# check: Spec Values < 60 for CC(C)/N=c1\scc(-c2cccs2)n1/N=C/c1ccc(O)c(O)c1O
not satisfied

# check: Spec Values < 60 for C/C(=N\NC(=S)Nc1ccccc1C)c1ccc(O)cc1
satisfied

* * *

Biological target: BCL-XLΔC (Homo sapiens)
Test: High-throughput competitive FP binding screen, FITC-BAD BH3/BCL-XLΔC interaction
Settings: FITC-BAD BH3/BCL-XLΔC interaction pair, competitive FP screen
MEASUREMENT NAME: BCL-XL % Bound (%)
// return numeric value only (unit: %, not printed)

Sample answers from the record:
MOLECULE	ASSAY TARGET	READING UNIT	BCL-XL % Bound
c1coc(C2Nc3cccc4cccc(c34)N2)c1	BCL-XLΔC (Homo sapiens)	%	106.3
O=C(O)C(Cc1ccccc1)N1C(=O)/C(=C\c2ccco2)SC1=S (centres unmarked)	BCL-XLΔC (Homo sapiens)	%	90.21
O=C(O)/C(S)=C\C=C\c1ccccc1	BCL-XLΔC (Homo sapiens)	%	90.49
CC1=C(C#N)C(O)=NC(=O)/C1=C/c1ccc(-c2cccc(C(=O)O)c2)o1	BCL-XLΔC (Homo sapiens)	%	89.7
CC(/N=C/c1cccc(O)c1O)c1ccccc1 (centres unmarked)	BCL-XLΔC (Homo sapiens)	%	93.71

Next, consider the following molecule.
What value of BCL-XL % Bound has been recorded for this entry: O=c1oc2c(-c3cccc(Cl)c3)cc(O)cc2s1
76.15
